Record form. Attribute: LC retention time. Fill in for each entry.
assay: HILIC, Waters Atlantis Premier BEH Z-HILIC, 100 × 2.1 mm, 1.7 µm, 40 °C, 0.15 mL/min, estimated dead time 1.5 min; A: water + 20 mM ammonium carbonate + 5 µM medronic acid; B: 10% water + 90% acetonitrile + 2 mM ammonium carbonate + 0.5 µM medronic acid; gradient (min/%B) 0/90 18/55 18.1/20 21.5/20 22/90 23.5/90 25.5/90; conditions: stereoisomer not certain
The response must be a number in min with no trailing unit.

For the molecule shown here, NC(=O)c1ccc[n+](C2OC(COP(=O)(O)OP(=O)(O)OCC3OC(n4cnc5c(N)ncnc54)C(OP(=O)(O)O)C3O)C(O)C2O)c1 (configuration not stated) , give the reported LC retention time.
13.1

For the molecule shown here, NC(CCC(=O)O)C(=O)O (configuration not stated) , give the reported LC retention time.
9.23

For the molecule shown here, CC(=O)NC1C(OP(=O)(O)OP(=O)(O)OCC2OC(n3ccc(=O)[nH]c3=O)C(O)C2O)OC(CO)C(O)C1O (configuration not stated) , give the reported LC retention time.
9.52

For the molecule shown here, NC(=O)CCC(N)C(=O)O (configuration not stated) , give the reported LC retention time.
10.3

For the molecule shown here, Nc1nc2c(ncn2C2OC(COP(=O)(O)OP(=O)(O)OP(=O)(O)O)C(O)C2O)c(=O)[nH]1 (configuration not stated) , give the reported LC retention time.
15.3

For the molecule shown here, NC(=O)C1=CN(C2OC(COP(=O)(O)OP(=O)(O)OCC3OC(n4cnc5c(N)ncnc54)C(OP(=O)(O)O)C3O)C(O)C2O)C=CC1 (configuration not stated) , give the reported LC retention time.
13.3

For the molecule shown here, O=C(O)CCC(=O)C(=O)O , give the reported LC retention time.
8.68

Cited source for all entries: the RepoRT retention time repository
